This section presents molecules with their documented nematicidal efficacy (formation of galls) values.
Test system: Meloidogyne incognita
Experiment: Meloidogyne incognita test (MELGIN)
Type: in vivo
Details: 20 ppm; lettuce; after 14 days

O=C(Nc1ncn(-c2c(Cl)cccc2Cl)n1)c1ccccc1Cl	90%
O=C(Nc1ncn(-c2c(Br)cc(F)cc2Br)n1)c1ccccc1C(F)(F)F	90%

Now look at this entry.
[in] Dear colleague, please send me the reported nematicidal efficacy (formation of galls) for "O=C(Nc1ncn(-c2c(F)cc(F)cc2F)n1)c1ccccc1Cl" when you can.
[out] 100%

* * *

Assay: Determination of log P values by HPLC (reversed-phase C18)
Type: physicochemical
Details: HPLC, reversed-phase C18, 55° C.; final compounds table
endpoint: log P neutral
Reply with the value as a number alone.

Cc1cc(C)c(S(=O)(=O)CC(F)(F)F)cc1-n1cnc(NC(=O)c2ccccc2C(F)(F)F)n1	2.49

[in] Determine from records and report log P neutral for "Cc1cccc(F)c1-n1cnc(NC(=O)c2ccccc2C(F)(F)F)n1"
[out] 2.19

[in] Supply recorded log P neutral for "O=C(Nc1ncn(-c2c(Br)cccc2Br)n1)c1ccccc1C(F)(F)F" here.
[out] 2.32

[in] Return the recorded log P neutral value; entry: "Cc1cc(C)c(-n2cnc(NC(=O)c3ccccc3C(F)(F)F)n2)cc1SCC(F)(F)F"
[out] 3.21

[in] Query log P neutral for "CCc1ccccc1C(=O)Nc1ncn(-c2c(F)cc(F)cc2F)n1"
[out] 2.14

[in] State its log P neutral for this compound: "O=C(Nc1ncn(-c2ccccc2Br)n1)c1ccccc1Cl"
[out] 1.96

[in] Retrieve log P neutral measured for "CCc1cccc(Cl)c1-n1cnc(NC(=O)c2ccccc2C(F)(F)F)n1" and print it.
[out] 2.55

[in] Return log P neutral for the following compound: "COc1cccc(C)c1-n1cnc(NC(=O)c2ccccc2C(F)(F)F)n1"
[out] 2.15

[in] Write down log P neutral measured for item "CCc1ccccc1C(=O)Nc1ncn(-c2ccccc2I)n1"
[out] 2.31

[in] # return recorded log P neutral for entry "O=C(Nc1ncn(-c2c(Br)cc(F)cc2Br)n1)c1ccccc1C(F)(F)F"
[out] 2.46

[in] Provide measured log P neutral value, entry: "O=C(Nc1ncn(-c2ccccc2Cl)n1)c1ccccc1Cl"
[out] 1.91

[in] Read the entry "O=C(Nc1ncn(-c2c(F)cccc2F)n1)c1cccnc1Cl" and write its reported log P neutral.
[out] 1.24

[in] Report log P neutral, nothing else, for this compound: "O=C(Nc1ncn(-c2c(F)cccc2F)n1)c1ccccc1C(F)F"
[out] 1.92

* * *

Parameter: nematicidal efficacy (formation of galls). Scope: all listed entries.
Tested on: Meloidogyne incognita
Assay: Meloidogyne incognita test (MELGIN)
Format: in vivo
Conditions: 20 ppm; lettuce; after 14 days
Give the value, in units of %, as a plain number.

O=C(Nc1ncn(-c2c(F)cccc2F)n1)c1ccccc1[N+](=O)[O-]	90
O=C(Nc1ncn(-c2c(Cl)cccc2Cl)n1)c1ccccc1C(F)(F)F	100
O=C(Nc1ncn(-c2c(F)c(F)c(F)c(F)c2F)n1)c1ccccc1I	90
Cc1cccc(Cl)c1-n1cnc(NC(=O)c2ccccc2C(F)(F)F)n1	90
CCc1ccccc1C(=O)Nc1ncn(-c2c(F)cc(F)cc2F)n1	100
O=C(Nc1ncn(-c2c(F)cccc2Cl)n1)c1ccccc1C(F)(F)F	100
O=C(Nc1ncn(-c2c(F)c(F)cc(F)c2F)n1)c1ccccc1C(F)(F)F	100
O=C(Nc1ncn(-c2c(F)cccc2F)n1)c1cc(F)ccc1C(F)(F)F	100

[in] Return nematicidal efficacy (formation of galls) for the following compound: "O=C(Nc1ncn(-c2c(F)cccc2Cl)n1)c1ccccc1I"
[out] 100

[in] Note nematicidal efficacy (formation of galls) for the compound shown: "O=C(Nc1ncn(-c2c(Cl)cccc2Cl)n1)c1ccccc1Br"
[out] 100

Where do these numbers come from? They come from patent US9920017B2.
